Measured side scatter shift accompanies every entry in the list below.
# assay_summary: activators of LNCaP prostate cell differentiation, primary screen, flow cytometry side scatter (AID 795);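 also: androgen-responsive LNCaP prostate cancer cells in charcoal-stripped serum medium; percent of cells past a gate set so DMSO wells show 10% shift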
# assay_context: 4 d, at 10 µM, stronger effect = higher value
The campaign covered roughly 24,000 compounds. About 130 (0.54%) were called active. Only a selection was taken, and actives are over-represented in it overall.
Hi! Could you send only the number? It should be in %, unit omitted.

As a guide, the following entries are already answered.
1) CCn1c(=O)cc(SCC(=O)NCc2ccc3c(c2)OCO3)c2ccccc21 = 20
2) CCCN1CCN(CCCNC(=O)CN2C(=O)COc3ccccc32)CC1 = 7
3) O=C(CN1C(=O)C2C3C=CC(C3)C2C1=O)NCC1COc2ccccc2O1 (stereo unspecified) = 9
4) O=C(COC(=O)c1ccccc1C(=O)c1ccccc1)c1ccco1 = 7
5) CC1(C)CC(O)C(CCC(O)c2ccccc2)C(C)(C)N1 (stereo unspecified) = 5

Q. GET /values?readout=side scatter shift&item= O=C(CSC1=Nc2ccccc2C2=NC(c3ccccc3)C(=O)N12)NCC1CCCO1 (stereo unspecified)
A. 8

Q. Also check Cc1cc(C)nc(NC2=NCC(=O)N2c2ccc(Cl)cc2)n1
A. 5

Q. Also check c1ccc(CCn2nnnc2CN2CCN(C3CCCC3)CC2)cc1
A. 14

Q. Also check COc1ccccc1C(=O)N1CCNC(=O)C1CC(=O)Nc1ccc(Cl)cc1 (stereo unspecified)
A. 7

Q. Also check CCOc1ccccc1NC(=O)c1cc(S(=O)(=O)N2CCC3(CC2)OCCO3)ccc1F
A. 7

Q. Also check Clc1ccc(Cn2ncc3c(NCc4cccnc4)ncnc32)cc1
A. 11

----------
# assay_summary: activators of LNCaP prostate cell differentiation, primary screen, flow cytometry side scatter (AID 795);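 also: androgen-responsive LNCaP prostate cancer cells in charcoal-stripped serum medium; percent of cells past a gate set so DMSO wells show 10% shift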
# assay_context: 4 d, at 10 µM, stronger effect = higher value
The campaign covered roughly 24,000 compounds. About 130 (0.54%) were called active. Only a selection was taken, and actives are over-represented in it overall.
Quick rule: side scatter shift of at least 5% means class 1, below that means class 0.

Reference set, count: 10
1. CC1=C(C(=O)Nc2ccccc2)C(c2cccs2)C(C#N)=C(SCC#N)N1 (stereo not drawn) = class 0
2. CCCC(=O)Nc1cccc(-c2cn3ccsc3n2)c1 = class 0
3. CC1(C)CN=C(N2CCN(c3ncnc4sc5c(c34)CCCC5)CC2)S1 = class 0
4. Cc1ccc(N2CCN(c3ccc(C)cc3)C2c2ccccn2)cc1 = class 1
5. CCOC(=O)CSc1nnc(CNC(=O)Cc2ccccc2)n1-c1ccccc1OC = class 1
6. OCCNCCCCOc1ccccc1F = class 1
7. C=CCn1c(=N)n(CC(O)COc2ccc(OC)cc2)c2ccccc21 (stereo not drawn) = class 1
8. COc1ccc2c(c1)CCc1c(C(=O)Nc3c(C)n(C)n(-c4ccccc4)c3=O)noc1-2 = class 0
9. CCOC(=O)c1ccc2[nH]c(C)c(CN3CCN(C)CC3)c(=O)c2c1 = class 1
10. CCOC(=O)C1CCCN(C(=O)c2ccc(CS(=O)(=O)c3ccc(Br)cc3)o2)C1 (stereo not drawn) = class 1

Alright, here's another compound for you.
Q. Please tell me: is the compound N#CC1=C(N)C(C#N)(C#N)[C@H](c2ccsc2)[C@H]2COCC=C12 at or over 5% in terms of side scatter shift?
A. class 1

----------
Measured side scatter shift accompanies every entry in the list below.
# assay_summary: activators of LNCaP prostate cell differentiation, primary screen, flow cytometry side scatter (AID 795);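 also: androgen-responsive LNCaP prostate cancer cells in charcoal-stripped serum medium; percent of cells past a gate set so DMSO wells show 10% shift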
# assay_context: 4 d, at 10 µM, stronger effect = higher value
Screen size: about 24,000 compounds; about 130 (0.54%) were called active. This is one part of a sample in which actives are shown more often than they occur.
Hi! Could you send only the number? It should be in %, unit omitted.

As a guide, the following entries are already answered.
1) Cc1ccsc1C(C(=O)NC1CCCCC1)N(C(=O)Cc1cccs1)C1CC1 (stereo unspecified) = 9
2) O=C(CNS(=O)(=O)c1ccc(Br)s1)NCc1ccc2c(c1)OCO2 = 9
3) Cc1ccc(-c2nnc(SC(C)C#N)n2N)cc1 (stereo unspecified) = 11

Q. GET /values?readout=side scatter shift&item= Cc1ccc(C)c(NC(=O)CSc2nnc(Cc3cccn3C)n2-c2ccc(F)cc2)c1
A. 12

Q. Also check COc1cccc(OCC(=O)Nc2ccccc2C(N)=O)c1
A. 9

Q. Also check Cc1cccn2c(=O)c3cc(C#N)c(=O)n(CCCN4CCOCC4)c3nc12
A. 4
